target: immobilized peptide fragment corresponding to the region 1-16 of the amyloid-β peptide (Homo sapiens, UniProt P05067); construct: N-terminal acetyl cap (Ac); C-terminal amide cap (NH2); test: SPR binding (BIACORE T100), Example 3, in the absence of zinc
Sequence (P05067 with tags, fused parts or gaps limits assumed): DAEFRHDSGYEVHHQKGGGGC
Where a SMILES comes first, the peptide text is derived from it.
Quick reference: koff of the listed items.

[
  {
    "COMPOUND": "CC(=O)N[C@@H](Cc1c[nH]cn1)C(=O)N[C@@H](C)C(=O)N[C@@H](CC(=O)O)C(=O)N[C@@H](CC(=O)O)C(N)=O [SEQ. ID. NO. 1, HADD] (Ac-HADD-NH2)",
    "koff [s⁻¹]": 0.0104
  },
  {
    "COMPOUND": "CC(=O)N[C@@H](Cc1c[nH]cn1)C(=O)N[C@@H](C)C(=O)N[C@@H](CCC(=O)O)C(=O)N[C@@H](CCC(=O)O)C(N)=O [SEQ. ID. NO. 19, Ac-HAEE-NH2] (Ac-HAEE-NH2)",
    "koff [s⁻¹]": "3.5e-05"
  },
  {
    "COMPOUND": "CC(=O)N[C@@H](CC(=O)O)C(=O)N[C@@H](CCC(=O)O)C(=O)N[C@@H](C)C(=O)N[C@@H](CCCNC(=N)N)C(N)=O [SEQ. ID. NO. 12, DEAR] (Ac-DEAR-NH2)",
    "koff [s⁻¹]": 0.00709
  },
  {
    "COMPOUND": "CC(=O)N[C@@H](CCCCN)C(=O)N[C@@H](C)C(=O)N[C@@H](CCC(=O)O)C(=O)N[C@@H](CC(=O)O)C(N)=O [SEQ. ID. NO. 9, KAED] (Ac-KAED-NH2)",
    "koff [s⁻¹]": 0.019
  },
  {
    "COMPOUND": "CC(=O)N[C@@H](CC(=O)O)C(=O)N[C@@H](CC(=O)O)C(=O)N[C@@H](C)C(=O)N[C@@H](CCCCN)C(N)=O [SEQ. ID. NO. 4, DDAK] (Ac-DDAK-NH2)",
    "koff [s⁻¹]": 0.0062
  },
  {
    "COMPOUND": "CC(=O)N[C@@H](CCCCN)C(=O)N[C@@H](C)C(=O)N[C@@H](CC(=O)O)C(=O)N[C@@H](CCC(=O)O)C(N)=O [SEQ. ID. NO. 15, KADE] (Ac-KADE-NH2)",
    "koff [s⁻¹]": 0.0096
  },
  {
    "COMPOUND": "CC(=O)N[C@@H](CCCNC(=N)N)C(=O)N[C@@H](C)C(=O)N[C@@H](CCC(=O)O)C(=O)N[C@@H](CCC(=O)O)C(N)=O [SEQ. ID. NO. 23, RAEE] (Ac-RAEE-NH2)",
    "koff [s⁻¹]": 0.0112
  },
  {
    "COMPOUND": "CC(=O)N[C@@H](CCCNC(=N)N)C(=O)N[C@@H](C)C(=O)N[C@@H](CC(=O)O)C(=O)N[C@@H](CC(=O)O)C(N)=O [SEQ. ID. NO. 5, Ac-RADD-NH2] (Ac-RADD-NH2)",
    "koff [s⁻¹]": 0.00024
  }
]

* * *

target: Aβ peptide (1-40) (Homo sapiens, UniProt P05067); construct: The complete β peptide 1-40 was used, marked by a fluorescent marker; assay: Aβ aggregation on SYNTHALOID SCREENING PLATE kit (fluorescence); details: 100 nM marked Aβ (1-40), 3 hours at room temperature, buffer with physiological Zn(II); read-out: inhibitory concentration IC50 of aggregation of the Aβ peptide
Sequence (P05067 672-711 limits assumed): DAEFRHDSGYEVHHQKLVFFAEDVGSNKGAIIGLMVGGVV
Where a SMILES comes first, the peptide text is derived from it.
# Lookup of reported IC50 keyed by entry
MEASUREMENT LABEL: IC50 (µM)

[
  {
    "COMPOUND": "CC(=O)N[C@@H](CCCNC(=N)N)C(=O)N[C@@H](C)C(=O)N[C@@H](CC(=O)O)C(=O)N[C@@H](CC(=O)O)C(N)=O [SEQ. ID. NO. 5, Ac-RADD-NH2] (Ac-RADD-NH2)",
    "TARGET OR TEST SYSTEM": "Aβ peptide (1-40) (Homo sapiens, UniProt P05067)",
    "RECORDED NUMBER": 20
  },
  {
    "COMPOUND": "CC(=O)N[C@@H](Cc1c[nH]cn1)C(=O)N[C@@H](C)C(=O)N[C@@H](CCC(=O)O)C(=O)N[C@@H](CCC(=O)O)C(N)=O [SEQ. ID. NO. 19, Ac-HAEE-NH2] (Ac-HAEE-NH2)",
    "TARGET OR TEST SYSTEM": "Aβ peptide (1-40) (Homo sapiens, UniProt P05067)",
    "RECORDED NUMBER": 20
  }
]

* * *

target: immobilized peptide fragment corresponding to the 1-16 region of the amyloid-β peptide (Homo sapiens)
pKd: −log10 of the molar value. Where a SMILES comes first, the peptide text is derived from it.
MEASUREMENT LABEL: pKd

[
  {
    "MOLECULE": "CC(=O)N[C@@H](Cc1c[nH]cn1)C(=O)N[C@@H](C)C(=O)N[C@@H](CCC(=O)O)C(=O)N[C@@H](CCC(=O)O)C(N)=O [SEQ. ID. NO. 19, Ac-HAEE-NH2] (Ac-HAEE-NH2)",
    "RECORDED NUMBER": 7.66
  }
]

* * *

target: immobilized peptide fragment corresponding to the region 1-16 of the amyloid-β peptide (Homo sapiens, UniProt P05067); construct: N-terminal acetyl cap (Ac); C-terminal amide cap (NH2); experiment: SPR binding (BIACORE T100), Example 3, in the absence of zinc
Where a SMILES comes first, the peptide text is derived from it.
MEASUREMENT LABEL: log10 kon (log10 of the value in M⁻¹ s⁻¹)

[
  {
    "COMPOUND": "CC(=O)N[C@@H](CCCCN)C(=O)N[C@@H](C)C(=O)N[C@@H](CC(=O)O)C(=O)N[C@@H](CCC(=O)O)C(N)=O [SEQ. ID. NO. 15, KADE] (Ac-KADE-NH2)",
    "MEASUREMENT LABEL": "log10 kon",
    "RECORDED NUMBER": 0.34
  },
  {
    "COMPOUND": "CC(=O)N[C@@H](CC(=O)O)C(=O)N[C@@H](CCC(=O)O)C(=O)N[C@@H](C)C(=O)N[C@@H](CCCNC(=N)N)C(N)=O [SEQ. ID. NO. 12, DEAR] (Ac-DEAR-NH2)",
    "MEASUREMENT LABEL": "log10 kon",
    "RECORDED NUMBER": 0.55
  },
  {
    "COMPOUND": "CC(=O)N[C@@H](Cc1c[nH]cn1)C(=O)N[C@@H](C)C(=O)N[C@@H](CCC(=O)O)C(=O)N[C@@H](CCC(=O)O)C(N)=O [SEQ. ID. NO. 19, Ac-HAEE-NH2] (Ac-HAEE-NH2)",
    "MEASUREMENT LABEL": "log10 kon",
    "RECORDED NUMBER": -0.43
  },
  {
    "COMPOUND": "CC(=O)N[C@@H](CC(=O)O)C(=O)N[C@@H](CC(=O)O)C(=O)N[C@@H](C)C(=O)N[C@@H](CCCCN)C(N)=O [SEQ. ID. NO. 4, DDAK] (Ac-DDAK-NH2)",
    "MEASUREMENT LABEL": "log10 kon",
    "RECORDED NUMBER": 0.66
  },
  {
    "COMPOUND": "CC(=O)N[C@@H](Cc1c[nH]cn1)C(=O)N[C@@H](C)C(=O)N[C@@H](CC(=O)O)C(=O)N[C@@H](CC(=O)O)C(N)=O [SEQ. ID. NO. 1, HADD] (Ac-HADD-NH2)",
    "MEASUREMENT LABEL": "log10 kon",
    "RECORDED NUMBER": 0.51
  }
]

* * *

Recorded kon for the following compounds
biological target: immobilized peptide fragment corresponding to the region 1-16 of the amyloid-β peptide (Homo sapiens, UniProt P05067); construct: N-terminal acetyl cap (Ac); C-terminal amide cap (NH2); experiment: SPR binding (BIACORE T100), Example 3, in the absence of zinc
Where a SMILES comes first, the peptide text is derived from it.

[
  {
    "COMPOUND": "CC(=O)N[C@@H](CCCCN)C(=O)N[C@@H](C)C(=O)N[C@@H](CCC(=O)O)C(=O)N[C@@H](CC(=O)O)C(N)=O [SEQ. ID. NO. 9, KAED] (Ac-KAED-NH2)",
    "kon / M⁻¹ s⁻¹": 5.7
  },
  {
    "COMPOUND": "CC(=O)N[C@@H](CCCNC(=N)N)C(=O)N[C@@H](C)C(=O)N[C@@H](CCC(=O)O)C(=O)N[C@@H](CCC(=O)O)C(N)=O [SEQ. ID. NO. 23, RAEE] (Ac-RAEE-NH2)",
    "kon / M⁻¹ s⁻¹": 1.5
  },
  {
    "COMPOUND": "CC(=O)N[C@@H](CCCNC(=N)N)C(=O)N[C@@H](C)C(=O)N[C@@H](CC(=O)O)C(=O)N[C@@H](CC(=O)O)C(N)=O [SEQ. ID. NO. 5, Ac-RADD-NH2] (Ac-RADD-NH2)",
    "kon / M⁻¹ s⁻¹": 18.5
  }
]
